Entries annotated with measured switch fluorescence ratio
System: ATP;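 note: ATP exposure 15 min at 22 °C before imaging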
test.summary: switch fluorescence ratio, 500 uM ATP over buffer (Cy3 cluster intensity, sum of 5 cycles each) (fold (ratio)); higher = stronger signal-on switching upon ATP binding; sequences stand for … in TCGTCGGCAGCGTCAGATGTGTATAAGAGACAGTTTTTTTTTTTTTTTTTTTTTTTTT…TC
assay.context: aptamer strand: ATP DNA aptamer (quencher-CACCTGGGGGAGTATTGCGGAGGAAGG + anchor), 100 nM annealed; ATP concentration: 500 uM
value.type: switch fluorescence ratio

1. AACGACTGGG = 0.997
2. TTTGTCAGAT = 0.98
3. GGATTTGGGT = 0.981
4. TTGGACATGT = 0.989
5. GGCGGCTTGG = 1
6. CCGGTTTTTT = 1
7. ATTGCTTTTG = 0.998
8. GTCTTTGTTA = 1.01
9. TTTGTCGCTG = 1.01
10. ATGCATCGGG = 0.997
11. TTTATAGGGC = 1.01
12. GAACCATGTT = 0.977
13. GAATCAGGGA = 1.02
14. TAGATAGCTT = 1.01
15. TGCTGGGGAA = 1.01
16. TTTGGGCCGC = 1.06
17. CCTAGTTGGC = 1.03
18. ATGTAATCAC = 1.04
19. TCTCGACTCA = 0.999
